B1: library; numbered along this chain (parent)
chain: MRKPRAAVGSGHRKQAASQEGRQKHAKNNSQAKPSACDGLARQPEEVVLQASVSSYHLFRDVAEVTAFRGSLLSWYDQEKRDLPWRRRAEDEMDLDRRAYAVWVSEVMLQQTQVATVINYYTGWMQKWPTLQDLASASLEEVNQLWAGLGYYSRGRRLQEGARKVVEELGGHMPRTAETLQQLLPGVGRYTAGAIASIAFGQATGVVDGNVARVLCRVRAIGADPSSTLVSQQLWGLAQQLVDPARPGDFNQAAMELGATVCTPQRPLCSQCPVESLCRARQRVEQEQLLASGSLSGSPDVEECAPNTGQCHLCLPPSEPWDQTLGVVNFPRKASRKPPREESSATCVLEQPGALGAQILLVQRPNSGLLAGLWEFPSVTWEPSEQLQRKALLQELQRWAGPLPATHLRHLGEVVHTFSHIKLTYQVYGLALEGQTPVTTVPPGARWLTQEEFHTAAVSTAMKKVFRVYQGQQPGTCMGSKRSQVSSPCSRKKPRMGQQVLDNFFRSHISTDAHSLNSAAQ

# Variants of: B1
# Protocol Notes: 8OG:A repair function score (normalized; synonymous = 0, nonsense = -1) (normalized log-likelihood score); higher = more repair activity (WT-like);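 further: cells sorted at 72 h after reporter transfection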
# Particulars: with 8OG:A DNA repair reporter (GFP) in HEK-293 MUTYH KO cells
Reported Metric: 8OG:A repair function score

mutation_label=W128N number=-0.681
mutation_label=C314D number=-0.532
mutation_label=P306A number=-0.0211
mutation_label=H410S number=-0.169
mutation_label=E341V number=-0.0649
mutation_label=S296V number=0.0116
mutation_label=V117S number=-0.427
mutation_label=E341K number=-0.0881
